Catalogue of compounds with associated GI50
- System: K562
- testDetails: NCI tumour cell line growth inhibition, 48 h
The source made the active and inactive calls. No stated cut-off is given here; in the data, active = GI50 up to about 1.1 µM and inactive = higher.

A selection of reference data follows.
compound	studyTarget	GI50
C=C1[C@@H](OC(C)=O)[C@H]2[C@@H](OC(C)=O)[C@@](C)(OC(C)=O)C[C@]2(OC(C)=O)C(=O)[C@@H](C)/C=C/C(C)(C)C(=O)C[C@H]1OC(C)=O	K562	> 100 µM (inactive)
CN(C)Cc1cc(/N=N/c2ccc(Cl)cc2)ccc1OC(=O)c1ccccc1	K562	14.4 µM (inactive)

Using the record for C[C@]12CC/C(=N\O)C=C1CC[C@@H]1[C@@H]2CC[C@]2(C)C(=N/O)/C(=C/c3ccc([N+](=O)[O-])cc3)C[C@@H]12 , report its GI50. 3.37 µM (inactive)

Using the record for O=c1c2ccccc2nc(-c2ccc(Br)cc2)n1NC1OC(CO)C(O)C(O)C1O (centres undefined) , report its GI50. 43.6 µM (inactive)

###

- Test system: SW-620
- testDetails: NCI tumour cell line growth inhibition, 48 h
Calls of active or inactive are those of the source. Rule as the data show it: active = GI50 up to about 1.1 µM and inactive = higher.
Could you please pick one outcome from this set? Yes (active), No (inactive)

molecule	studyTarget	class
CC(=O)[C@@]1(c2ccccc2)CC2(CCN(C)CC2)O[C@H]1C	SW-620	No
NC(=O)c1ccccc1NC(=O)C(=O)C(c1cnc2ccc([N+](=O)[O-])cc2n1)[N+](=O)[O-] (centres undefined)	SW-620	No
CC[C@@]12C=CC(=S)N(CCSc3ccccc3)[C@@H]1c1c(n(S(=O)(=O)c3ccc(OC)cc3)c3ccccc13)CC2	SW-620	No
COc1ccc([C@@]23CCC(=O)C[C@@H]2N(C)CC3)cc1OC	SW-620	No
O=CCOCc1cc2c(cc1Br)OCO2	SW-620	No
COC(=O)c1ccc(NC(=O)c2cc(OC)c(OC)c(OC)c2)cc1	SW-620	Yes
COC(=O)/C1=C/C=C\C[C@@]2(C)CC(c3ccoc3)OC(=O)[C@@H]2CC[C@H]1C (some centres undefined)	SW-620	No
Oc1cc2c3c(c1)CCCN3CCC2	SW-620	No

// return assay outcome for C/C=C(\C)C(=O)OC1C(C)=C2C(C1OC(=O)CCCC)C(C)(OC(C)=O)CC(OC(=O)CCCC)C1(O)C2OC(=O)C1(C)O (centres undefined) Yes

// return assay outcome for COc1ccc(/N=N/C(=N/NC(=O)c2cc(Cl)ccc2C(=O)c2ccccc2)c2ccc(N(CCC#N)CCC#N)cc2C)cc1 No

// return assay outcome for O=P1(O)c2ccccc2CS(=O)(=O)Cc2ccccc21 No

// return assay outcome for CN(C)c1ccc(C2CC(=O)CC(c3ccc(N(C)C)cc3)C23C(=O)NC(=S)NC3=O)cc1 (centres undefined) No

// return assay outcome for CCC1CCC2C3CC=C4CC(OC(C)=O)C(N)CC4(C)C3CCC12C (centres undefined) No

// return assay outcome for CCOC(=O)c1csc(NC(=O)CCN2CCCCC2)n1 No

###

- System: SK-MEL-2
- testDetails: NCI tumour cell line growth inhibition, 48 h
Activity calls are given as the source filed them. No stated cut-off is given here; in the data, active = GI50 up to about 1.1 µM and inactive = higher.
testReadout: GI50

A selection of reference data follows.
molecule	studyTarget	GI50
Cc1ccccc1N1C(=O)C2C=CC(n3[nH]c(=O)n(Cc4ccccc4)c3=O)CC2C1=O (configuration not stated)	SK-MEL-2	> 100 µM (inactive)
S=C(/N=c1\sc(Nc2ccc(Cl)cc2)nc2sc3c(c12)CCN(N1CCc2c(sc4nc(Nc5ccc(Cl)cc5)s/c(=N\C(=S)Nc5ccc(Cl)cc5)c24)C1)C3)Nc1ccc(Cl)cc1	SK-MEL-2	23.4 µM (inactive)
COc1ccc(C2C3C(=O)C=CC(=O)C3[C@@H]2C)cc1OC (some centres not stated)	SK-MEL-2	> 100 µM (inactive)
OC1c2ccccc2C(O)C2OC12 (configuration not stated)	SK-MEL-2	> 100 µM (inactive)
CN(C)CCCNc1c2ccccc2[n+]([O-])c2ccccc12	SK-MEL-2	> 100 µM (inactive)

GI50 of COc1ccc([C@@]23CCC(=O)C[C@@H]2N(C)CC3)cc1OC on SK-MEL-2? > 100 µM (inactive)

GI50 of O=[N+]([O-])c1ccc2[nH]nc(OCc3ccccn3)c2c1 on SK-MEL-2? 82.2 µM (inactive)

GI50 of COc1ccc2c(OC)c3ccoc3nc2c1O on SK-MEL-2? > 100 µM (inactive)

GI50 of CSc1nc2nc(C)c(C)nc2c(=O)[nH]1 on SK-MEL-2? > 100 µM (inactive)

GI50 of CCCCCCCCCCCC(=O)OCC(C[As](=O)(O)O)OC(=O)CCCCCCCCCCC (configuration not stated) on SK-MEL-2? 3.92 µM (inactive)

GI50 of O/N=C1/CCCCCC1NO (configuration not stated) on SK-MEL-2? > 100 µM (inactive)

GI50 of COC(=O)/C(=N/Nc1cccc(Cl)c1)C(C(=O)C(=O)Nc1cccc(Cl)c1C)c1nc2ccccc2nc1C (configuration not stated) on SK-MEL-2? 38.5 µM (inactive)

GI50 of CN(C)c1ccc(C2CC(=O)CC(c3ccc(N(C)C)cc3)C23C(=O)NC(=S)NC3=O)cc1 (configuration not stated) on SK-MEL-2? 38.8 µM (inactive)

###

Catalogue of molecules with associated log10 GI50
- System: HCT-15
Please keep in mind that the values are log10 of GI50 expressed in µM.

A selection of reference data follows.
molecule	log10 GI50
C#CCN1C(=O)CN2C(Cl)(Cl)C2(c2ccccc2)c2cc(Cl)ccc21 (stereo not drawn)	1.61
COCC#C[C@@]1(O)CCCCC1CC(OC)OC (stereo partly drawn)	1.88
CN(C)CCNc1ccc2nnn3c4ccccc4c(=O)c1c23	0.51
O=S1(=O)CS(=O)(=O)OCCO1	1.69
O=C1/C(=C/c2ccc(Oc3ccccc3)cc2)N=C(c2ccccc2)N1c1ccc(S(=O)(=O)Nc2nccs2)cc1	0.91

Could you now consider this next molecule?
log10 GI50 of COc1ccc(C(OCC2OC(n3cc(C)c(=O)[nH]c3=O)CC2n2cc(Cn3cc(F)c(=O)[nH]c3=O)nn2)(c2ccccc2)c2ccccc2)cc1 (stereo not drawn) on HCT-15? 0.65

###

- Test system: SK-OV-3
- testDetails: NCI tumour cell line growth inhibition, 48 h
Active and inactive are the calls of the source. Rule as the data show it: active = GI50 up to about 1.1 µM and inactive = higher.
Could you please pick one outcome from this set? active, inactive

compound	class
COc1c(Br)cc(Br)c(OC)c1-c1[nH]c(Br)c(Br)c1Br	inactive
O=C1C(Cl)=C(N2CCSCC2)C(=O)c2c(O)ccc(O)c21	active
COc1ccc(-c2c(C#N)c(O)n(C3OC(CO)C(O)C(O)C3O)c(=S)c2C#N)cc1 (stereo not given)	inactive
CC(C)Cc1ccc(C(C)/C=C2\CCC(CN(C)C)C2=O)cc1 (stereo not given)	inactive

// return assay outcome for COc1ccc(/C=N/NC(=O)CSc2nc(-c3ccccc3)c(-c3ccccc3)[nH]2)cc1OC inactive

###

- Tested on: IGROV-1
- testDetails: NCI tumour cell line growth inhibition, 48 h
Activity calls are given as the source filed them. No stated cut-off is given here; in the data, active = GI50 up to about 1.1 µM and inactive = higher.
Could you please pick one outcome from this set? true for active, false for inactive

Previously resolved entries follow.
compound	studyTarget	class
COc1ccc(C(=O)/C=C/c2cccnc2)cc1OC	IGROV-1	false
CSc1nc2nc(C)c(C)nc2c(=O)[nH]1	IGROV-1	false
CC(C)(CN1CCCCC1)C(=O)/C=C/c1c(Cl)cccc1Cl	IGROV-1	true

// return assay outcome for CN(C)Cc1cc(Cl)c(O)c(CN(C)C)c1 false

// return assay outcome for CN(C)CCNc1ccc2nnn3c4ccccc4c(=O)c1c23 false

###

- Test system: UACC-257
- testDetails: NCI tumour cell line growth inhibition, 48 h
Activity calls are given as the source filed them. Cut-off read from the data, not from the text of the source: active = GI50 up to about 1.1 µM and inactive = higher.
testReadout: GI50

A selection of reference data follows.
compound	studyTarget	testResult
COc1c(Br)cc(Br)c(OC)c1-c1[nH]c(Br)c(Br)c1Br	UACC-257	4.81 µM (inactive)
COc1cc2c(cc1O)c(O)cc1c3cc(OC)c(OC)cc3c[n+](C)c21	UACC-257	51.8 µM (inactive)
CSC(=N)N1N=C2/C(=C/c3ccccc3)CCC[C@H]2[C@H]1c1ccccc1	UACC-257	2.37 µM (inactive)

GI50 of CCCCCCCCCCCCCCCCOP(=O)(O)OP(=O)(O)OCC1OC(n2ccc(N)nc2=O)CC1O (configuration not stated) on UACC-257? > 100 µM (inactive)

GI50 of COC(=O)CSc1nnc(-c2ccccc2)[nH]1 on UACC-257? > 100 µM (inactive)

GI50 of CCN(CC)Cc1ccc(C(=S)Nc2ccc(C)cc2)s1 on UACC-257? 11.4 µM (inactive)

GI50 of COc1ccc2c(c1)CCCN1Cc3ccccc3CC21 (configuration not stated) on UACC-257? 91.2 µM (inactive)

Origin of the recorded values: ChEMBL document CHEMBL1201862
